Reference source: paper PMC9998502

assay system: human kappa opioid receptor (human)
protocol notes: radioligand binding; displacement of [3H]U-69593 from commercial membranes of CHO cells transfected with the human recombinant kappa opioid receptor; Ki, mean ± SEM, n ≥ 3
Below, each entry is listed alongside its reported pKi.
Answer as the number alone; pKi is minus log10 of concentration in mol/L.

Sample answers from the record:
{"columns": ["substance", "pKi"],
 "data": [
  ["EM-2 analog 3 (Dmt-(R)-Pip-Phe-Phe-NH2) (peptide)", 7.14],
  ["EM-2 analog 1 (Dmt-Pro-Phe-Phe-NH2) (peptide)", 6.08]
]}

# input Find the recorded pKi belonging to EM-2 analog 5 (Dmt-(R)-Nip-Phe-Phe-NH2) (peptide) and report it.
# output 6.25

# input Find the recorded pKi belonging to EM-2 analog 9 (Dmt-(R)-β3-Ala-Phe-Phe-NH2) (peptide) and report it.
# output 6.05

# input Find the recorded pKi belonging to EM-2 analog 7 (Dmt-(R)-β2-Ala-Phe-Phe-NH2) (peptide) and report it.
# output 6.09
